target: human β-hexosaminidase [human placenta] (HexA/B); construct: other: human β-hexosaminidase, human placenta; room temperature, thirty minutes; test: Determination of IC50 values for inhibition of human β-hexosaminidase; settings: human β-hexosaminidase, human placenta; room temperature, thirty minutes
Kindly supply the reported IC50 values for the records listed here.

# IC50 lookup, item CCCCCCN1[C@H](CO)[C@@H](O)[C@@H](O)[C@@H]1CC(=O)NC
> 300 µM

Field request: IC50 | item: CCCCCCN1[C@H](CO)[C@@H](O)[C@H](O)[C@@H]1CC(=O)NC
0.405 µM

Which IC50 is listed for CNC(=O)C[C@@H]1[C@H](O)[C@H](O)[C@@H](CO)N1CCCCc1ccccc1 ?
> 300 µM

Can you share its IC50? I mean this compound: CCCCCCN1[C@H](CO)[C@@H](O)[C@H](O)[C@H]1CC(=O)NCCC
> 300 µM

Give its IC50 value. Item: CNC(=O)C[C@@H]1[C@H](O)[C@H](O)[C@@H](CO)N1CCC1CCCCC1
114 µM

Fill blank: measured IC50 of the compound CNC(=O)C[C@@H]1[C@H](O)[C@H](O)[C@@H](CO)N1CCc1ccccc1 is ____.
33 µM

Can you look up the measured IC50 of CN(C)c1ccc(S(=O)(=O)NCCCCCCN2[C@H](CC(N)=O)[C@H](O)[C@H](O)[C@H]2CO)c2ccccc12 for me?
11 µM

Quick check: IC50 of CCCNC(=O)C[C@@H]1[C@H](O)[C@H](O)[C@@H](CO)N1CCCCCCCCCO ?
> 300 µM

For CC(=O)NC[C@H]1N[C@H](CO)[C@@H](O)[C@H]1O , what is its reported IC50?
> 300 µM

Endpoint output: IC50 of CNC(=O)C[C@@H]1[C@H](O)[C@H](O)[C@@H](CO)N1CCCCCNS(=O)(=O)c1ccc(Oc2ccccc2)cc1 . Value?
15 µM

For the compound shown here, CNC(=O)C[C@@H]1[C@H](O)[C@H](O)[C@@H](CO)N1CCOc1ccccc1 , give the reported IC50.
> 300 µM

Can you share its IC50? I mean this compound: CNC(=O)[C@H]1NC[C@@H](O)[C@@H]1O
14 µM

Would you mind telling me what IC50 value was observed for CCNC(=O)C[C@@H]1[C@@H](O)[C@H](O)[C@@H](CO)N1CCCc1ccc(OC)cc1 ?
> 300 µM

// IC50 lookup, key: CCNC(=O)C[C@@H]1[C@@H](O)[C@H](O)[C@@H](CO)N1CCCc1ccccc1
> 300 µM

Looking for the measured IC50 of CC(C)NC(=O)C[C@H]1N[C@H](CO)[C@@H](O)[C@H]1O , can you help?
> 300 µM

Endpoint output: IC50 of CCCCCCCCCN1[C@H](CC(=O)NC)[C@H](O)[C@H](O)[C@H]1CO . Value?
> 300 µM

###

system: human β-hexosaminidase [human placenta] (HexA/B); assay: Determination of IC50 values for inhibition of human β-hexosaminidase; type: biochemical; conditions: ratio
experimental.endpoint: Selectivity: IC50(human β-hexosaminidase)/IC50(Human OGA)

For CNC(=O)C[C@@H]1[C@H](O)[C@H](O)[C@@H](CO)N1CCCCCNS(=O)(=O)c1ccc(C)cc1 [Compound A064] , what is its reported Selectivity: IC50(human β-hexosaminidase)/IC50(Human OGA)?
>3366

Entry CNC(=O)C[C@@H]1[C@H](O)[C@H](O)[C@@H](CO)N1CCCCC(C)C [Compound A021] has what Selectivity: IC50(human β-hexosaminidase)/IC50(Human OGA)?
>37037

# input molecule: CCNC(=O)C[C@@H]1[C@@H](O)[C@H](O)[C@@H](CO)N1CCCc1ccccc1 [Compound A061] ; wanted: its Selectivity: IC50(human β-hexosaminidase)/IC50(Human OGA)
>4329

I am curious: what Selectivity: IC50(human β-hexosaminidase)/IC50(Human OGA) value has been reported for CNC(=O)C[C@@H]1[C@H](O)[C@H](O)[C@@H](CO)N1CCCNC(=O)OC(C)(C)C [Compound A065] ?
8342

So what's the measured Selectivity: IC50(human β-hexosaminidase)/IC50(Human OGA) for this one? CCNC(=O)C[C@@H]1[C@@H](O)[C@H](O)[C@@H](CO)N1CCC(c1ccccc1)c1ccccc1 [Compound A068]
>65405

Give the measured Selectivity: IC50(human β-hexosaminidase)/IC50(Human OGA) of CCNC(=O)C[C@@H]1[C@@H](O)[C@H](O)[C@@H](CO)N1CCCc1ccc(Cl)cc1 [Compound A063] .
>8333

Please give the measured Selectivity: IC50(human β-hexosaminidase)/IC50(Human OGA) for this molecule: CCCCCCCCCN1[C@H](CC(=O)NCCCC)[C@H](O)[C@H](O)[C@H]1CO [Compound A001]
>5

Which Selectivity: IC50(human β-hexosaminidase)/IC50(Human OGA) reading was recorded for the molecule CCCCNC(=O)C[C@@H]1[C@H](O)[C@H](O)[C@@H](CO)N1CCCCCCCCCO [Compound A003] ?
>4
